Data origin: PubChem BioAssay

Experiment: growth suppression of yeast trafficking mutant, preliminary HTS, modulators of trafficking downstream of Golgi apparatus project, 1536-format plate, OD 615 nm (AID 637); further: test concentration not given here
Conditions: yeast transport mutant growth, absorbance 615 nm, 18 h; hits give high values
measuredEndpoint: inhibition (%)
Give the number; % is assumed, so skip it.

Would you please look over these solved cases?
Cc1nnc(N(C)C(=O)c2cccnc2)s1 = 3.33
CCOC(=O)NC(c1ccccc1)C1CCCCC1=O (stereo not drawn) = 0.32
COc1cccc(C(c2nnnn2Cc2ccccc2)N2CCN(C(=O)c3ccco3)CC2)c1OC (stereo not drawn) = -6.35
CCOc1ccc(N2CC(C(=O)Nc3ccc(F)cc3F)CC2=O)cc1 (stereo not drawn) = -5.08
O=C(O)CCn1c(=O)c2ccccc2c2ccccc2c1=O = -8.06

**Q:** Which inhibition is reported for this molecule? C1COC(NC(C2CC2)C2CC2)=N1
**A:** -5.17

**Q:** Could you tell me which inhibition is on file for Cc1ccccc1NC(=O)c1ccc(NC(=O)c2ccco2)cc1 ?
**A:** -4.6

**Q:** May I ask what inhibition has been recorded for COc1ccc(OC)c(C(=O)CSc2nc3ncccc3[nH]2)c1 ?
**A:** 12.5

**Q:** Give the measured inhibition of C/C(Cl)=C\Cn1c(Nc2ccc(C)cc2)nc2c1c(=O)n(C)c(=O)n2C .
**A:** 1.75

**Q:** I would be grateful if you could share the reported inhibition for O=C1NC(=O)C2(CCC(C(=O)O)C2)N1 (stereo not drawn) .
**A:** 2.46

**Q:** # input molecule: CCCn1c(=NC(C)=O)c(C#N)cc2c(=O)n3cccc(C)c3nc21 ; wanted: its inhibition
**A:** -3.45

**Q:** Consider the molecule Cc1nn(-c2ccccc2)c2[nH]c(C(F)(F)F)cc(=O)c12 and give its measured inhibition.
**A:** 4.36
